Every entry's value here was drawn from patent US8563714B2.

# target of assay: human ALX receptor (Homo sapiens)
# Construct: expressed in transfected cells; host or cells: HEK293 (HEK293-hALXR-Gα16)
# Sequence (P25090 1-351): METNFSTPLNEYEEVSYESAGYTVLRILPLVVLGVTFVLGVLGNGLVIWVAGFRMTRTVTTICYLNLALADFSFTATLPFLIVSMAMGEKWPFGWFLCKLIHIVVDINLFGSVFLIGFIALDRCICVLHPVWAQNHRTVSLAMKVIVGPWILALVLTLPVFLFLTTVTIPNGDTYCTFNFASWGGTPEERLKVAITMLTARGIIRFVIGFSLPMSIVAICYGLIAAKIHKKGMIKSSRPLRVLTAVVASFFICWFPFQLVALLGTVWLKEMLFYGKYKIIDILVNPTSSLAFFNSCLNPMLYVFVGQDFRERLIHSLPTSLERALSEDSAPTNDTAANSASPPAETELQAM
# experimental details: Intracellular calcium measurements (FLIPR), agonistic activity in HEK293-hALXR-Gα16 cells
# Type: cell-based
# condition details: Fluo-4 calcium FLIPR, normalized to WKYMVm 10 nM
pEC50: −log10 of the molar value.
result type: pEC50

[P] O=C(NCCCCN1CCCC1)[C@H]1[C@H](C(=O)Nc2nnc(C(F)(F)F)s2)[C@@H]2C=C[C@H]1C21CC1 (racemic)
[Q] O=C(NCCCO)[C@H]1[C@H](C(=O)Nc2ccc(Br)cc2)[C@@H]2C=C[C@H]1C21CC1
[R] O=C(NCCCCN1CCCC1)[C@H]1[C@H](C(=O)NCc2nc(Br)cs2)[C@@H]2C=C[C@H]1C21CC1 (racemic)
-- ask Please list these compounds in decreasing order of pEC50. Put the labels in the requested order and write them down.
-- reply Q, R, P

* * *

# target of assay: human FPRL2 (Homo sapiens)
# experimental details: Intracellular calcium measurements (FLIPR), agonistic activity in HEK293-hFPRL2-Gα16 cells
# condition details: Fluo-4 calcium FLIPR, normalized to GLY14-Humanin 100 nM
result type: EC50 (µM)

[P] Cc1cc(C(=O)NC[C@H]2[C@H](C(=O)Nc3ccc(Br)cc3)[C@@H]3C=C[C@H]2C32CC2)nn1C (racemic) [Example 178]
[Q] O=C(NCCCCN1CCCC1)[C@H]1[C@H](C(=O)Nc2cc(F)c(Br)cc2F)[C@@H]2C=C[C@H]1C21CC1 [Example 314]
-- ask Please state the entry with greater EC50 among P and Q . Identify your selection by its label.
-- reply P
(P: 4.07 µM, Q: 0.204 µM)

[A] O=C(C=Cc1ccccc1)NC[C@H]1[C@H](C(=O)Nc2ccc(Br)cc2)[C@@H]2C=C[C@H]1C21CC1 (racemic) [Example 189]
[B] O=C(NCCCCN1CCCC1)[C@H]1[C@H](C(=O)NCCc2ccc(Cl)cc2Cl)[C@@H]2C=C[C@H]1C21CC1 [Example 391]
-- ask Pick one, A or B : lowest reported EC50. Identify your selection by its label.
-- reply B
(B: 0.0038 µM, A: 3.24 µM)

* * *

# target of assay: human FPRL2 (Homo sapiens)
# experimental details: Intracellular calcium measurements (FLIPR), agonistic activity in HEK293-hFPRL2-Gα16 cells
# condition details: Fluo-4 calcium FLIPR, normalized to GLY14-Humanin 100 nM
result type: EC50 (µM)

compound | EC50 (µM)
O=C(NCCc1ccccn1)[C@H]1[C@H](C(=O)Nc2ccc(Br)cc2)[C@@H]2C=C[C@H]1C21CC1 (racemic) | 4.38
CC(C)(C)OC(=O)NCCCCNC(=O)[C@H]1[C@H](C(=O)Nc2ncc(Br)s2)[C@@H]2CC[C@H]1C21CC1 | 3.54
CCCCCNC(=O)[C@H]1[C@H](C(=O)NCCCCN2CCCC2)[C@H]2C=C[C@@H]1C21CC1 (racemic) | 0.496
CC(=O)c1csc(CNC(=O)[C@H]2[C@H](C(=O)NCCN3CCNC3=O)[C@H]3C=C[C@@H]2C32CC2)n1 (racemic) | 3.55
O=C(NCCn1cncn1)[C@H]1[C@H](C(=O)Nc2ccc(Br)cc2)[C@@H]2C=C[C@H]1C21CC1 (racemic) | 1.51
COC(=O)CCCC(=O)NC[C@H]1[C@H](C(=O)Nc2ccc(Br)cc2)[C@@H]2C=C[C@H]1C21CC1 (racemic) | 4.71
O=C(NCCCCN1CCCC1)[C@H]1[C@H](C(=O)Nc2ccc3ncoc3c2)[C@@H]2C=C[C@H]1C21CC1 (racemic) | 0.067
CC(C)CNC(=O)[C@H]1[C@H](C(=O)Nc2ccc(Br)cc2)[C@@H]2C=C[C@H]1C21CC1 (racemic) | 5.31
Cc1nc(CCNC(=O)[C@H]2[C@H](C(=O)Nc3ccc(Br)cc3)[C@H]3C=C[C@@H]2C32CC2)[nH]c1C (relative stereo) | 0.0074
CN1CCCC1CCNC(=O)C1C(C(=O)Nc2ccc(Br)cc2)C2C=CC1C21CC1 (mixture of isomers) | 4.1

[1] O=C(NCCOCCO)[C@H]1[C@H](C(=O)Nc2ncc(Br)s2)[C@@H]2CC[C@H]1C21CC1
[2] NS(=O)(=O)c1ccc(CCNC(=O)[C@H]2[C@H](C(=O)NCCc3ccc(Cl)cc3)[C@@H]3C=C[C@H]2C32CC2)cc1
-- ask Pick one, 1 or 2 : lowest reported EC50. Identify your selection by its label.
-- reply 2

* * *

# target of assay: human ALX receptor (Homo sapiens, UniProt P25090)
# experimental details: Intracellular calcium measurements (FLIPR), agonistic activity in HEK293-hALXR-Gα16 cells
# condition details: Fluo-4 calcium FLIPR, normalized to WKYMVm 10 nM
result type: EC50 (µM)

Example cases with answers are listed next.
compound | value units | EC50
O=C(NCCCCN1CCCC1)[C@H]1[C@H](C(=O)Nc2ccc(Br)c(F)c2)[C@@H]2C=C[C@H]1C21CC1 [Example 288] | µM | 0.00087
NCCCCNC(=O)[C@H]1[C@H](C(=O)Nc2ncc(Br)s2)[C@@H]2CC[C@H]1C21CC1 [Example 335] | µM | 0.0005
O=C(NCCCn1cccn1)[C@H]1[C@H](C(=O)Nc2ccc(Br)cc2)[C@@H]2C=C[C@H]1C21CC1 (racemic) [Example 37] | µM | 0.0071

[a] CC(=O)c1csc(CNC(=O)[C@H]2[C@H](C(=O)NCC(C)C)[C@H]3C=C[C@@H]2C32CC2)n1 (racemic) [Example 244]
[b] O=C(NCCCCN1CCCC1)[C@H]1[C@H](C(=O)NCc2cccc(OC(F)F)c2)[C@@H]2C=C[C@H]1C21CC1 (racemic) [Example 360]
-- ask Pick one, a or b : lowest reported EC50. Identify your selection by its label.
-- reply a

[P] O=C(NCCCCN1CCCC1)[C@H]1[C@H](C(=O)NCc2ccc(F)c(C(F)(F)F)c2)[C@@H]2C=C[C@H]1C21CC1 (racemic) [Example 366]
[Q] CCN(CC)CCNC(=O)[C@H]1[C@H](C(=O)Nc2ccc(Br)cc2)[C@@H]2C=C[C@H]1C21CC1 (racemic) [Example 66]
[R] COc1ccc(CNC(=O)[C@H]2[C@H](C(=O)NCCCCN3CCCC3)[C@H]3C=C[C@@H]2C32CC2)cc1F (racemic) [Example 228]
-- ask Sort entries by EC50 from minimum to maximum value. Put the labels in the requested order and write them down.
-- reply Q, R, P
(Q: 0.034 µM, R: 0.389 µM, P: 10 µM)

[I] O=C(NCCCCN1CCOCC1)[C@H]1[C@H](C(=O)Nc2ccc(Br)cc2)[C@@H]2C=C[C@H]1C21CC1 [Example 211]
[II] NCc1ccc(CNC(=O)[C@H]2[C@H](C(=O)Nc3ccc(Br)cc3)[C@@H]3C=C[C@H]2C32CC2)cc1 (racemic) [Example 38]
-- ask Pick one, I or II : lowest reported EC50. Identify your selection by its label.
-- reply I
(I: 0.00053 µM, II: 0.0075 µM)

[1] NC(=O)CCCNC(=O)[C@H]1[C@H](C(=O)Nc2ccc(Br)cc2)[C@@H]2C=C[C@H]1C21CC1 (racemic) [Example 205]
[2] NCC1CCC(NC(=O)C2C(C(=O)Nc3ccc(Br)cc3)C3C=CC2C32CC2)CC1 (single isomer, unassigned) [Example 421]
-- ask Pick one, 1 or 2 : lowest reported EC50. Identify your selection by its label.
-- reply 1
(1: 0.0073 µM, 2: 0.013 µM)

* * *

# target of assay: human FPRL2 (Homo sapiens)
# Sequence (P25089 1-353): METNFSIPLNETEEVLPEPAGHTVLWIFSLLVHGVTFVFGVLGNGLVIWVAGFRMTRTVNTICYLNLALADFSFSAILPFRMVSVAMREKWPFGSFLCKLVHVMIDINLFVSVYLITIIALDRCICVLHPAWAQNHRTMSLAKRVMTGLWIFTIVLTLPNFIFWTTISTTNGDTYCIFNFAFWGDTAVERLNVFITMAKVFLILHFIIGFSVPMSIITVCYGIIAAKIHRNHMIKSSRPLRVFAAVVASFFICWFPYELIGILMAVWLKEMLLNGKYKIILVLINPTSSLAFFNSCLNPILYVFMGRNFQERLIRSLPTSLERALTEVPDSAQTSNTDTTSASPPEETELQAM
# experimental details: Intracellular calcium measurements (FLIPR), agonistic activity in HEK293-hFPRL2-Gα16 cells
# condition details: Fluo-4 calcium FLIPR, normalized to GLY14-Humanin 100 nM
pEC50: −log10 of the molar value.
result type: pEC50

Example cases with answers are listed next.
compound | pEC50
O=C(NCCCCN1CCCC1)[C@H]1[C@H](C(=O)NCc2csc(Br)c2)[C@@H]2C=C[C@H]1C21CC1 (racemic) | 7.12
CCN(CC)CCCCNC(=O)C1C(C(=O)NCc2ccc(Br)cc2)C2C=CC1C21CC1 (stereo not shown) | 6.52
O=C(NCC1CCCN1)[C@H]1[C@H](C(=O)Nc2ncc(Br)s2)[C@@H]2CC[C@H]1C21CC1 (stereo partly shown) | 6.32
CCOCCCNC(=O)[C@H]1[C@H](C(=O)Nc2ccc(Br)cc2)[C@@H]2C=C[C@H]1C21CC1 (racemic) | 5.70
CC(=O)CCCNC(=O)[C@H]1[C@H](C(=O)NCCCCN2CCCC2)[C@H]2C=C[C@@H]1C21CC1 (racemic) | 5.88
O=C(Nc1ncc(Br)s1)C1C(C(=O)NC2CCC(CO)CC2)C2CCC1C21CC1 (single isomer, unassigned) [Example 410] | 4.74

[a] COc1ccc(CNC(=O)[C@H]2[C@H](C(=O)NCCCCN3CCCC3)[C@H]3C=C[C@@H]2C32CC2)cc1OC (racemic)
[b] CN1CCC(NC(=O)[C@H]2[C@H](C(=O)Nc3ccc(Br)cc3)[C@@H]3C=C[C@H]2C32CC2)CC1 (racemic)
[c] CCn1nc(C)cc1CCNC(=O)[C@H]1[C@H](C(=O)Nc2ccc(Br)cc2)[C@@H]2C=C[C@H]1C21CC1 (racemic)
-- ask Output the entries ranked by pEC50 from maximum down to minimum. Put the labels in the requested order and write them down.
-- reply a, c, b

[1] CCN(CC)CCCNC(=O)[C@H]1[C@H](C(=O)Nc2ccc(Br)cc2)[C@@H]2C=C[C@H]1C21CC1 (racemic)
[2] COc1ccc(NC(=O)C2C(C(=O)NCCCCN3CCCC3)C3C=CC2C32CC2)cc1 (racemic)
-- ask Please state the entry with greater pEC50 among 1 and 2 . Identify your selection by its label.
-- reply 2

[P] O=C(NCCCc1nc2ccccc2[nH]1)[C@H]1[C@H](C(=O)Nc2ncc(Br)s2)[C@@H]2C=C[C@H]1C21CC1 (racemic)
[Q] CC(C)CC(CO)NC(=O)C1C(C(=O)Nc2ccc(Br)cc2)C2C=CC1C21CC1 (mixture of isomers)
-- ask Pick one, P or Q : lowest reported pEC50. Identify your selection by its label.
-- reply Q
(Q: 5.08, P: 5.51)
